Target: 3-hydroxyacyl-CoA dehydrogenase type-2 (Homo sapiens) (UniProt Q99714)
Sequence (Q99714 whole entry, looked up): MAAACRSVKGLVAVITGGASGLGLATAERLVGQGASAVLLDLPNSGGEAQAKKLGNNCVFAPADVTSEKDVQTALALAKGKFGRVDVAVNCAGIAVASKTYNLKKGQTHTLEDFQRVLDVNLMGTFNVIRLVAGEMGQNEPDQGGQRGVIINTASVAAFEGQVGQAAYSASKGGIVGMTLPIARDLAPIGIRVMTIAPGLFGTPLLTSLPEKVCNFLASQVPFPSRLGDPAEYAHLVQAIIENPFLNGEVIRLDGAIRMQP
Sequence (Q99714 whole entry, looked up): as above
Assay: qHTS Assay for Inhibitors of HADH2 (Hydroxyacyl-Coenzyme A Dehydrogenase, Type II); further: nearly all actives have a fitted effect of over 60% in size; further: potency means the concentration at half of the fitted maximal effect
Settings: recombinant HADH2, NADH fluorescence, beta-hydroxybutyryl-CoA; series mostly up to 57.1 µM
Screen size: about 73,000 compounds; about 2,500 (3.4%) were called active. Another 7% or so got no clear call; they are omitted. The list comes from a sample in which actives are over-represented; it also holds close analogues and randomly drawn compounds.
Value Type: Potency

# annotated cases, reported Potency shown
CN(C)CCCCNC(=O)c1ccc(Cc2nc3ccccc3[nH]2)cc1
inactive
CS(=O)(=O)N1CCC2(CCN(c3ccncc3)CC2)CC1
inactive
CNc1cc(-c2c(C)noc2C)ncn1
inactive
COC(=O)[C@@]1(Cc2ccc(F)cc2)[C@@H]2[C@@H](CC(=O)[C@H]2CC(=O)C(=O)N2CCCC2)CN1C(=O)c1ccccc1
inactive
O=C(Oc1cccnc1)c1cc2ccccc2oc1=O
20 µM (active)

Below is a list of compounds. For each, state its recorded Potency.
1. O=C(NCc1ccc2c(c1)OCO2)c1ccc2c(c1)C(=O)N(CC1CCCO1)C2=O (stereo unspecified)
2. O=c1[nH]c(-c2ccccc2)c(-c2ccccc2)[nH]1
3. O=c1c(-c2ccc(F)cc2)nc2cncnc2n1-c1ccccc1
4. O=c1[nH]c(=O)c2nc3ccccc3nc2[nH]1

["inactive", "3.16 µM (active)", "inactive", "inactive"]

Okay, here is my list. What is Potency for each of these?
1. CC(C)N(CCNC(=O)c1ccc(-n2c(=O)c(=O)[nH]c3ccccc32)cc1)C(C)C
2. O=C(NCc1ccccn1)c1cc2ccccc2oc1=O

["inactive", "inactive"]

* * *

Target: 3-hydroxyacyl-CoA dehydrogenase type-2 (Homo sapiens)
Experiment: qHTS Assay for Inhibitors of HADH2 (Hydroxyacyl-Coenzyme A Dehydrogenase, Type II); further: nearly all actives have a fitted effect of over 60% in size; further: potency means the concentration at half of the fitted maximal effect
Details: recombinant HADH2, NADH fluorescence, beta-hydroxybutyryl-CoA; series mostly up to 57.1 µM
About 2,500 (3.4%) of roughly 73,000 compounds were called active. Not shown: some 7% with an inconclusive outcome. This is one part of a sample in which actives are shown more often than they occur.
Value Type: Potency

O=C(NCc1ccco1)c1nc2ncccn2n1
inactive
N#C/C(=C\c1ccc(O)c(O)c1)C(N)=O
31.6 µM (active)
CCCCc1cc(=O)oc2cc(C)cc(OCc3nn[nH]n3)c12
25.1 µM (active)
O=C(CCOc1ccccc1)NCc1ccccc1
inactive
COc1ccc(OC)c(Nc2nc(-c3ccc(O)c(O)c3)cs2)c1
0.126 µM (active)
O=c1c(-c2cc(F)cc(F)c2)nc2cnc(Oc3ccccc3)nc2n1C[C@H]1CCCO1
inactive
O=C(NCc1ccccn1)c1ccc2nc(-c3ccco3)c(-c3ccco3)nc2c1
5.01 µM (active)
O=C(NCc1ccccn1)c1c(O)c2c([nH]c1=O)CCCC2
inactive

Field: Potency. Fill in for each record below.
1. Cn1c(C(=O)N2CCC(C(N)=O)CC2)cc2c(=O)n(C)c3ccccc3c21
2. CCN1CCCC1CNC(=O)c1cc2c(=O)n(C)c3ccccc3c2n1C (stereo unspecified)
3. Oc1ccc(-c2csc(Nc3cccnc3)n2)cc1

["inactive", "31.6 µM (active)", "inactive"]

* * *

Target: 3-hydroxyacyl-CoA dehydrogenase type-2 (Homo sapiens)
Assay: qHTS Assay for Inhibitors of HADH2 (Hydroxyacyl-Coenzyme A Dehydrogenase, Type II); further: nearly all actives have a fitted effect of over 60% in size
Conditions: recombinant HADH2, NADH fluorescence, beta-hydroxybutyryl-CoA; series mostly up to 57.1 µM
About 2,500 (3.4%) of roughly 73,000 compounds were called active. Roughly 7% stayed inconclusive and do not appear here. Calls follow the shape of the dose curve; as a rule, active = well fitted inhibition curve with a large enough effect; inconclusive = small, poorly fitted or top-dose-only effect; inactive = no such curve, though single readings can be large or run the other way. The sample as a whole holds a higher share of actives than the screen did.
Choose the fitting class; nothing outside active, inactive is accepted.

N#Cc1cc2[nH]c(=O)c(=O)[nH]c2cc1[N+](=O)[O-]
inactive

Tell me the assay call for "Cn1c(-c2ccco2)nc2cc3ccccc3cc21" please.
active

Which outcome was assigned to "c1coc(-c2nc3nc4ccccc4n3nc2-c2ccco2)c1" in this test?
inactive

Please state the recorded outcome for this compound: "COc1cccc(Cn2c(=O)c(CCc3ccccc3)nc3cnc(N(C)C)nc32)c1"
inactive

Identify the outcome logged in this assay for the compound shown: "COC(=O)[C@@H]1[C@H]2C[C@H]3c4[nH]c5cc(OC)ccc5c4CCN3C[C@@H]2C[C@@H](OC(=O)c2cc(OC)c(OC)c(OC)c2)[C@@H]1OC"
inactive

Hi team, can someone confirm the assay call for "CCCc1nc2ccccc2c(C(=O)OCc2nnc(-c3cc(OC)c(OC)c(OC)c3)o2)c1CC" ?
inactive

Identify the outcome logged in this assay for the compound shown: "CN1CCCc2cc(C#N)c(=O)[nH]c21"
active

* * *

Target: 3-hydroxyacyl-CoA dehydrogenase type-2 (Homo sapiens)
Test: qHTS Assay for Inhibitors of HADH2 (Hydroxyacyl-Coenzyme A Dehydrogenase, Type II); further: nearly all actives have a fitted effect of over 60% in size
Settings: recombinant HADH2, NADH fluorescence, beta-hydroxybutyryl-CoA; series mostly up to 57.1 µM
The whole screen tested about 73,000 compounds, of which about 2,500 (3.4%) were called active. Roughly 7% stayed inconclusive and do not appear here. Calls come from the whole dose curve; as a rule, active = well fitted inhibition curve with a large enough effect; inconclusive = small, poorly fitted or top-dose-only effect; inactive = no such curve, though single readings can be large or run the other way. Many of the other results were omitted from the sample, so actives are more common in it than they were.
Could you please pick one outcome from this set? True = active, False = inactive

c1ccc2nc(C3=NCCN3)cnc2c1
False
C[C@H](CCC(=O)NCC(=O)O)[C@H]1CC[C@H]2[C@H]3[C@@H](C[C@@H](O)[C@]12C)[C@]1(C)CC[C@H](O)C[C@@H]1C[C@@H]3O
False
COC(=O)C1=CN(C)C=C(C(=O)OC)C1c1ccc(Cl)cc1Cl
False
Cc1ccccc1NC(=O)c1ccccc1
False
CCOc1ccccc1C1C(C(=O)OC)=CN(C)C=C1C(=O)OC
True

Read the next record carefully.
GET /call?item= "CN1CCC2(CC1)CCN(S(=O)(=O)c1ccccc1)CC2" returns the recorded outcome of this test.
False

* * *

Biological target: 3-hydroxyacyl-CoA dehydrogenase type-2 (Homo sapiens) (UniProt Q99714)
Experiment: qHTS Assay for Inhibitors of HADH2 (Hydroxyacyl-Coenzyme A Dehydrogenase, Type II); further: nearly all actives have a fitted effect of over 60% in size
Conditions: recombinant HADH2, NADH fluorescence, beta-hydroxybutyryl-CoA; series mostly up to 57.1 µM
Out of some 73,000 compounds screened, about 2,500 (3.4%) were called active. Roughly 7% stayed inconclusive and do not appear here. Calls come from the whole dose curve; as a rule, active = well fitted inhibition curve with a large enough effect; inconclusive = small, poorly fitted or top-dose-only effect; inactive = no such curve, though single readings can be large or run the other way. The list comes from a sample in which actives are over-represented; it also holds close analogues and randomly drawn compounds.
Give your call using only these classes: YES = active, NO = inactive

Please review the following examples before continuing.
Cc1nc2cnc(N3CCN(C)CC3)nc2n(CCC#N)c1=O
NO
COC(=O)N1CCC[C@@]2(CCN(C(=O)NC(C)C)C2)C1
NO
C[N+](C)(C)CCCCCNCC12CC3CC(CC(C3)C1)C2
NO
O=C(CNCCO)NC12CC3CC(CC(C3)C1)C2
NO
CC(NCCO)C(=O)C12CC3CC(CC(C3)C1)C2 (stereo unspecified)
YES
c1ccc(CSc2nnc(-c3ccco3)n2Cc2ccccc2)cc1
NO
CCOC(=O)CCc1c(C)c2ccc(OCc3nn[nH]n3)c(C)c2oc1=O
YES
Nc1cc(=O)nc(SCc2ccccc2)n1Cc1ccco1
NO
CN1CCN(CC(=O)C23CC4CC(CC(C4)C2)C3)CC1
NO
O=C(c1cc(C(F)(F)F)cc(C(F)(F)F)c1)N1CCC2(CC1)CN(c1ccncc1)C2
NO

We now examine a further molecule.
Called result for "c1ccc2c(Nc3ccncc3)nc(-c3ccc4c(c3)OCO4)nc2c1"
YES

* * *

Biological target: 3-hydroxyacyl-CoA dehydrogenase type-2 (Homo sapiens) (UniProt Q99714)
Assay: qHTS Assay for Inhibitors of HADH2 (Hydroxyacyl-Coenzyme A Dehydrogenase, Type II); further: nearly all actives have a fitted effect of over 60% in size
Conditions: recombinant HADH2, NADH fluorescence, beta-hydroxybutyryl-CoA; series mostly up to 57.1 µM
The campaign covered roughly 73,000 compounds. About 2,500 (3.4%) were called active. Another 7% or so got no clear call; they are omitted. Calls follow the shape of the dose curve; as a rule, active = well fitted inhibition curve with a large enough effect; inconclusive = small, poorly fitted or top-dose-only effect; inactive = no such curve, though single readings can be large or run the other way. The full list was thinned out, with actives kept by preference.
Outcome field: choose from active, inactive

Solved entries:
CN1C(=O)c2ccc(NC(=O)C3CCCCC3)cc2C1=O
inactive
CC(C)CC1(C(=O)NCc2ccccn2)C=CCN1C(=O)c1ccccc1 (stereo unspecified)
inactive
O=C(c1ccc(F)cc1)C1CCN(CCCCc2ccccc2)CC1
inactive
CCN(CC)c1ccc2oc(=O)c(C)nc2c1
active
COc1ccc(C(=O)n2nc(-c3ccc(C)cc3)nc2N)cc1OC
active

As a next step, examine the compound that follows.
Call for entry CCC(=O)Nc1ccc(C(=O)Nc2ccc3c(c2)C(=O)N(CC2CCCO2)C3=O)cc1 (stereo unspecified) :
active

* * *

Molecular target: 3-hydroxyacyl-CoA dehydrogenase type-2 (Homo sapiens) (UniProt Q99714)
Assay: qHTS Assay for Inhibitors of HADH2 (Hydroxyacyl-Coenzyme A Dehydrogenase, Type II); further: nearly all actives have a fitted effect of over 60% in size
Conditions: recombinant HADH2, NADH fluorescence, beta-hydroxybutyryl-CoA; series mostly up to 57.1 µM
The whole screen tested about 73,000 compounds, of which about 2,500 (3.4%) were called active. About 7% were inconclusive and are not listed. Calls follow the shape of the dose curve; as a rule, active = well fitted inhibition curve with a large enough effect; inconclusive = small, poorly fitted or top-dose-only effect; inactive = no such curve, though single readings can be large or run the other way. Only a selection was taken, and actives are over-represented in it overall.
Choose one outcome from this list and give only that: yes (1) = active, no (0) = inactive

Cc1cc(C)c2c(n1)nn1c(N3CCOCC3)cc(C)nc21
yes (1)
CN(c1ccccc1)c1ccc(/C=c2\s/c(=C(/C#N)C(=O)C(C)(C)C)n(Cc3ccco3)c2=O)cc1
no (0)
Oc1c(CN2CCOCC2)ccc(CN2CCOCC2)c1O
yes (1)
COc1ccc(CCn2c(=N)c(C(=O)NCc3ccco3)cc3c(=O)n4cccc(C)c4nc32)cc1
no (0)
CCOc1ccc2[nH]c(=O)c(C(c3nnnn3CCOC)N3CCOCC3)cc2c1 (stereo not drawn)
yes (1)

Recorded test call requested for COC(=O)c1ccc(C(NC(=O)OCc2ccccc2)/C(C)=C/[C@@H](C)C(=O)NCc2cc(C)on2)cc1 (stereo partly drawn)
no (0)

I would be grateful if you could indicate the recorded call for "Cc1nc2cnc(N3CCNCC3)nc2n(Cc2ccc(F)cc2)c1=O" .
no (0)

Hi team, can someone confirm the assay call for "C[C@]1(C(=O)NCCc2c[nH]c3ccccc23)C=C[C@@H](Cc2ccccc2)N1C(=O)c1ccccc1" ?
no (0)

Hi, do you know how "N[C@@H](C(=O)O)c1ccc(P(=O)(O)O)cc1" came out in this test?
no (0)

Which outcome did this test record for the molecule CC1CCCCN1CCCNC(=O)c1ccc(-n2c(=O)c(=O)[nH]c3ccccc32)cc1 (stereo not drawn) ?
no (0)

Identify the outcome logged in this assay for the molecule shown: "Cc1nc2c(c(=O)n1Cc1ccco1)c1nc3ccccc3nc1n2Cc1ccccc1"
yes (1)

Short answer needed: outcome of this test for O=C(CS(=O)(=O)Cc1ccccc1)NCC1CCCO1 (stereo not drawn) ?
no (0)

Could you check what this test reported for "O=C1C(c2ccccn2)=[N+]([O-])c2ccccc21" ?
no (0)

Lab log entry: "CCOC(=O)NCc1ccc2c(c1)OCO2" — outcome as called in the assay?
no (0)

Dear all, I need the recorded test outcome for "CCC(=O)Nc1sc(C(=O)N2CCCCC2)c(C)c1C#N" , thank you.
no (0)

Which outcome was assigned to "COc1c(C)c2c(c(O)c1C/C=C(\C)CCC(=O)O)C(=O)OC2" in this test?
no (0)

Entry "CCS(=O)(=O)N(C)[C@@H]1c2cc(C#N)ccc2OC(C)(C)[C@H]1O" : call = ?
no (0)

// outcome(item) with item = "CC(C)[C@H](CO)Nc1nc(Nc2cc(N)cc(Cl)c2)c2ncn(C(C)C)c2n1"
no (0)

Tell me the assay call for O=c1c2cc3c(=O)n(CC4CCCO4)c(=O)c3cc2c(=O)n1CC1CCCO1 (stereo not drawn) please.
no (0)

I would be grateful if you could indicate the recorded call for COc1ccc(CNC(=O)c2cc3c(=O)n4ccccc4nc3n(CC3CCCO3)c2=N)cc1 (stereo not drawn) .
no (0)

GET /call?item= "CCCC[C@H]1C(=O)N(c2ccccc2)N(c2ccc(O)cc2)C1=O" returns the recorded outcome of this test.
no (0)

Write down the call the test reported for this molecule. Item: O=C(CSC1=Nc2ccccc2C2=NC(c3ccccc3)C(=O)N12)NCC1CCCO1 (stereo not drawn)
yes (1)

Hi, sorry to bother you, what did the test record for CCCOc1ccc(C2c3c(oc4cc(C)c(C)cc4c3=O)C(=O)N2CCCN2CCOCC2)cc1 (stereo not drawn) ?
no (0)

Recorded test outcome, item "Cc1cccc(-n2c(N)c(C(=O)N3CCN(C)CC3)sc2=S)c1"
yes (1)

Identify the outcome logged in this assay for the molecule shown: CC1=C(C(=O)OCc2ccccc2)C(c2ccc(C(F)(F)F)cc2)NC(=O)N1CCCCCC(=O)O (stereo not drawn)
no (0)

Called result for "CCOCCCNC(=O)c1c[nH]c2cc(C)ccc2c1=O"
no (0)
